Experiment: Plasma pharmacokinetics of bimiralisib, non-compartmental analysis (LC-MS)
Format: in vivo, human
Conditions: human, plasma, oral, 160 mg, Intermittent Dose Schedule A, 160 mg, Day -3, 3 patients; read-out: Tmax Median, (Range)
Protocol: Blood samples were collected to enable full PK profiling of bimiralisib. […] The pharmacokinetics of bimiralisib were determined by non-compartmental analysis. Area under the concentration vs. time curve (AUC) was calculated using the linear up log down trapezoidal method. Accumulation was calculated as the ratio of cycle 1 on Day 15 AUC0–8h versus cycle 1 on Day -3 AUC0–8h.
ASSAY READOUT: Tmax (h)

{"COMPOUND": "Nc1cc(C(F)(F)F)c(-c2nc(N3CCOCC3)nc(N3CCOCC3)n2)cn1 [bimiralisib]", "ASSAY READOUT": "Tmax", "UNIT ANNOTATION": "h", "VAL": 1}
